# Experiment Notes: Solubility in different solvents, shake-flask method
# Assay type: physicochemical
# Assay Conditions: PEG 400, thermodynamic from solid, room temperature, n=3, read-out: Solubility in PEG 400
Observable: solubility at 24 h (mg/mL)
Enter your answer as a number in mg/mL; do not include the unit.

-- ask Give the measured solubility at 24 h of C/C(=N\c1ccc(O)cc1)c1cc2ccccc2n1C [GT-14] .
-- reply 11.3

----------
# Experiment Notes: Ionization constant (pKa) determination, Pion Sirius T3, UV-metric and Fast UV titration
# Assay type: physicochemical
# Assay Conditions: 0.15 M KCl solution, 0.15 M KCl, 25 ± 1°C; read-out: pKa (printed as acidic pKa, nitrogen of the imine group)
Observable: pKa
Response field accepts a number only; no unit should be typed.

-- ask Give the measured pKa of C/C(=N\c1ccc(O)cc1)c1cc2ccccc2n1C .
-- reply 3.46

----------
# Experiment Notes: Solubility in different solvents, shake-flask method
# Type: physicochemical
# Assay Conditions: PEG 300, thermodynamic from solid, room temperature, n=3, read-out: Solubility in PEG 300
# Protocol: Solubility of GT-14 was assessed in different solvents, namely, water, ethanol, PEG 300, PEG 400, propylene glycol, DMSO, DMA, olive oil, soybean oil, Labrasol and Labrafac, by the shake-flask method. Briefly, an excess amount of GT-14 was added to each of the selected solvents in a scintillation vial. […] It was then diluted and analyzed by UPLC to determine the concentration of GT-14. […]
Observable: solubility at 24 h
Be sure to follow the number with its unit.

-- ask Give the measured solubility at 24 h of C/C(=N\c1ccc(O)cc1)c1cc2ccccc2n1C .
-- reply 17.2 mg/mL

----------
# Experiment Notes: Solubility in different solvents, shake-flask method
# Type: physicochemical
# Assay Conditions: Labrafac CC (Labrafac Lipophile WL1349), thermodynamic from solid, room temperature, n=3, read-out: Solubility in Labrafac CC (Labrafac Lipophile WL1349)
Observable: solubility at 24 h (µg/mL)
Enter your answer as a number in µg/mL; do not include the unit.

-- ask Give the measured solubility at 24 h of C/C(=N\c1ccc(O)cc1)c1cc2ccccc2n1C [GT-14] .
-- reply 8600

----------
# Experiment Notes: Tissue distribution and urinary excretion after IV dose in rats
# Assay type: in vivo, Sprague Dawley rats
# Assay Conditions: male, Sprague Dawley, heart; rat, IV 5 mg/kg, 24 hr post dose; read-out: Tissue concentration, heart
Observable: concentration at 24 h (ng/g)
Enter your answer as a number in ng/g; do not include the unit.

-- ask Give the measured concentration at 24 h of C/C(=N\c1ccc(O)cc1)c1cc2ccccc2n1C .
-- reply 0.13

----------
# Experiment Notes: Tissue distribution and urinary excretion after IV dose in rats
# Format: in vivo, Sprague Dawley rats
# Assay Conditions: male, Sprague Dawley, rat, intravenous, 5 mg/kg; all tissues, 24 hr post dose; read-out: tissue-to-plasma ratios
Observable: Kp at 24 h

-- ask Give the measured Kp at 24 h of C/C(=N\c1ccc(O)cc1)c1cc2ccccc2n1C .
-- reply < 1

----------
# Experiment Notes: Tissue distribution and urinary excretion after IV dose in rats
# Type: in vivo, Sprague Dawley rats
# Assay Conditions: male, Sprague Dawley, kidney; rat, IV 5 mg/kg, 24 hr post dose; read-out: Tissue concentration, kidney
Observable: concentration at 24 h
Be sure to follow the number with its unit.

-- ask Give the measured concentration at 24 h of C/C(=N\c1ccc(O)cc1)c1cc2ccccc2n1C .
-- reply 0.52 ng/g

----------
# Experiment Notes: Solubility in different solvents, shake-flask method
# Type: physicochemical
# Assay Conditions: propylene glycol, thermodynamic from solid, room temperature, n=3, read-out: Solubility in propylene glycol
Observable: solubility at 24 h (µg/mL)
Enter your answer as a number in µg/mL; do not include the unit.

-- ask Give the measured solubility at 24 h of C/C(=N\c1ccc(O)cc1)c1cc2ccccc2n1C [GT-14] .
-- reply 5300

----------
# Experiment Notes: Tissue distribution and urinary excretion after IV dose in rats
# Type: in vivo, Sprague Dawley rats
# Assay Conditions: male, Sprague Dawley, liver; rat, IV 5 mg/kg, 24 hr post dose; read-out: Tissue concentration, liver
Observable: concentration at 24 h (ng/g)
Enter your answer as a number in ng/g; do not include the unit.

-- ask Give the measured concentration at 24 h of C/C(=N\c1ccc(O)cc1)c1cc2ccccc2n1C [GT-14] .
-- reply 0.13

----------
# Experiment Notes: Bi-directional transport study in Caco-2 cell culture model
# Assay type: in vitro ADME, human
# Assay Conditions: human, Caco-2, pH 7.4; donor 10 μM
Observable: efflux ratio at 4 h, 10 μM
Response field accepts a number only; no unit should be typed.

-- ask Give the measured efflux ratio at 4 h, 10 μM of C/C(=N\c1ccc(O)cc1)c1cc2ccccc2n1C .
-- reply 1.8

----------
# Experiment Notes: Solubility in different solvents, shake-flask method
# Format: physicochemical
# Assay Conditions: soybean oil, thermodynamic from solid, room temperature, n=3, read-out: Solubility in soybean oil
Observable: solubility at 24 h (µg/mL)
Enter your answer as a number in µg/mL; do not include the unit.

-- ask Give the measured solubility at 24 h of C/C(=N\c1ccc(O)cc1)c1cc2ccccc2n1C [GT-14] .
-- reply 7800

----------
# Experiment Notes: Cosolvent formulation: solubility, saline dilution and storage stability
# Format: physicochemical
# Assay Conditions: PEG300: PEG400: Propylene glycol (1:1:1), organic solvent or mixture; PEG300: PEG400: Propylene glycol, ratio 1:1:1; read-out: Solubility in cosolvent formulation
Observable: solubility (µg/mL)
Enter your answer as a number in µg/mL; do not include the unit.

-- ask Give the measured solubility of C/C(=N\c1ccc(O)cc1)c1cc2ccccc2n1C .
-- reply 6000

----------
# Experiment Notes: Phase I biotransformation in rat liver microsomes
# Type: in vitro ADME
# Assay Conditions: rat, 60 min incubation
Observable: remaining at 1 h, 10 μM

-- ask Give the measured remaining at 1 h, 10 μM of C/C(=N\c1ccc(O)cc1)c1cc2ccccc2n1C .
-- reply > 90%

----------
# Experiment Notes: Bi-directional transport study in Caco-2 cell culture model
# Assay type: in vitro ADME, human
# Assay Conditions: human, Caco-2; donor 10 μM, HBSS pH 7.4, n=3; read-out: basolateral to apical permeability (Pb-a)
Observable: Papp B→A at 4 h, 10 μM (×10⁻⁶ cm/s)
Enter your answer as a number in ×10⁻⁶ cm/s; do not include the unit.

-- ask Give the measured Papp B→A at 4 h, 10 μM of C/C(=N\c1ccc(O)cc1)c1cc2ccccc2n1C .
-- reply 24.2

----------
# Experiment Notes: Cosolvent formulation: solubility, saline dilution and storage stability
# Assay type: physicochemical
# Assay Conditions: PEG300: PEG400: Propylene glycol (3:2:2 v/v), optimum, organic solvent or mixture; PEG300: PEG400: Propylene glycol, ratio 3:2:2 v/v; read-out: Solubility in cosolvent formulation (optimum)
Observable: solubility (µg/mL)
Enter your answer as a number in µg/mL; do not include the unit.

-- ask Give the measured solubility of C/C(=N\c1ccc(O)cc1)c1cc2ccccc2n1C .
-- reply 8000

----------
# Experiment Notes: pH-dependent solubility in USP buffers
# Type: physicochemical
# Assay Conditions: standard USP buffer, aqueous buffer; pH 1.2, 24 h
Observable: solubility thermodynamic at 24 h

-- ask Give the measured solubility thermodynamic at 24 h of C/C(=N\c1ccc(O)cc1)c1cc2ccccc2n1C .
-- reply ~80 µg/mL

----------
# Experiment Notes: Solubility in different solvents, shake-flask method
# Format: physicochemical
# Assay Conditions: olive oil, thermodynamic from solid, room temperature, n=3, read-out: Solubility in olive oil
Observable: solubility at 24 h (mg/mL)
Enter your answer as a number in mg/mL; do not include the unit.

-- ask Give the measured solubility at 24 h of C/C(=N\c1ccc(O)cc1)c1cc2ccccc2n1C [GT-14] .
-- reply 11.4

----------
# Experiment Notes: Ionization constant (pKa) determination, Pion Sirius T3, UV-metric and Fast UV titration
# Assay type: physicochemical
# Assay Conditions: 0.15 M KCl solution, 0.15 M KCl, 25 ± 1°C; read-out: pKa (printed as basic pKa, phenolic group)
Observable: pKa
Response field accepts a number only; no unit should be typed.

-- ask Give the measured pKa of C/C(=N\c1ccc(O)cc1)c1cc2ccccc2n1C .
-- reply 10.5

----------
# Experiment Notes: Solubility in different solvents, shake-flask method
# Format: physicochemical
# Assay Conditions: Labrasol, thermodynamic from solid, room temperature, n=3, read-out: Solubility in Labrasol
Observable: solubility at 24 h (µg/mL)
Enter your answer as a number in µg/mL; do not include the unit.

-- ask Give the measured solubility at 24 h of C/C(=N\c1ccc(O)cc1)c1cc2ccccc2n1C [GT-14] .
-- reply 8100

----------
# Experiment Notes: Tissue distribution and urinary excretion after IV dose in rats
# Assay type: in vivo, Sprague Dawley rats
# Assay Conditions: male, Sprague Dawley, plasma; rat, IV 5 mg/kg, 24 hr post dose; read-out: Plasma concentration
Observable: concentration at 24 h (ng/mL)
Enter your answer as a number in ng/mL; do not include the unit.

-- ask Give the measured concentration at 24 h of C/C(=N\c1ccc(O)cc1)c1cc2ccccc2n1C [GT-14] .
-- reply 9.62
